test system: Staphylococcus; test: Antibacterial activity against 10^4 to 10^5 CFU methicillin-susceptible coagulase-negative Staphylococcus after 18 hrs by CLSI 2-fold agar dilution method; format: functional
Values of MIC50 strictly less than 0.5 µg/mL map to y, and values of at least 0.5 µg/mL map to n.

Is 0.5 µg/mL strictly greater than the compound's reported MIC50? compound: CO/N=C1\CN(c2nc3c(cc2F)c(=O)c(C(=O)O)cn3C2CC2)CC1CN (stereo unspecified)
y

Is 0.5 µg/mL strictly greater than the compound's reported MIC50? compound: CN[C@H](CC(C)C)C(=O)N[C@H]1C(=O)N[C@@H](CC(N)=O)C(=O)N[C@H]2C(=O)N[C@H]3C(=O)N[C@H](C(=O)N[C@H](C(=O)O)c4cc(O)cc(O)c4-c4cc3ccc4O)[C@H](O)c3ccc(c(Cl)c3)Oc3cc2cc(c3O[C@@H]2O[C@H](CO)[C@@H](O)[C@H](O)[C@H]2O[C@H]2C[C@](C)(N)[C@H](O)[C@H](C)O2)Oc2ccc(cc2Cl)[C@H]1O
n

Is 0.5 µg/mL strictly greater than the compound's reported MIC50? compound: CC(=O)NC[C@H]1CN(c2ccc(N3CCOCC3)c(F)c2)C(=O)O1
n

Is 0.5 µg/mL strictly greater than the compound's reported MIC50? compound: CC[C@H]1OC(=O)[C@H](C)[C@@H](O[C@H]2C[C@@](C)(OC)[C@@H](O)[C@H](C)O2)[C@H](C)[C@@H](O[C@@H]2O[C@H](C)C[C@H](N(C)C)[C@H]2O)[C@](C)(O)C[C@@H](C)C(=O)[C@H](C)[C@@H](O)[C@]1(C)O
y

Is 0.5 µg/mL strictly greater than the compound's reported MIC50? compound: Cc1onc(-c2ccccc2)c1C(=O)N[C@@H]1C(=O)N2[C@@H]1SC(C)(C)[C@@H]2C(=O)O
y

* * *

For each of the compounds below, state its MIC90.
tested on: Staphylococcus aureus; assay: Antibacterial activity against 10^4 to 10^5 CFU methicillin-resistant Staphylococcus aureus after 18 hrs by CLSI 2-fold agar dilution method; type: functional
Give bare numbers, in mg/L.

Find MIC90 (Staphylococcus aureus) for the entry CN1CCN(c2ccc(N3C[C@H](CO)OC3=O)cc2F)C=N1 [DELPAZOLID]
2

Hi! Can you tell me MIC90 for each of these compounds?
1. CO/N=C1\CN(c2nc3c(cc2F)c(=O)c(C(=O)O)cn3C2CC2)CC1CN (stereo not given) [GEMIFLOXACIN]
2. CC(=O)NC[C@H]1CN(c2ccc(N3CCOCC3)c(F)c2)C(=O)O1 [LINEZOLID]
3. CN[C@H](CC(C)C)C(=O)N[C@H]1C(=O)N[C@@H](CC(N)=O)C(=O)N[C@H]2C(=O)N[C@H]3C(=O)N[C@H](C(=O)N[C@H](C(=O)O)c4cc(O)cc(O)c4-c4cc3ccc4O)[C@H](O)c3ccc(c(Cl)c3)Oc3cc2cc(c3O[C@@H]2O[C@H](CO)[C@@H](O)[C@H](O)[C@H]2O[C@H]2C[C@](C)(N)[C@H](O)[C@H](C)O2)Oc2ccc(cc2Cl)[C@H]1O [VANCOMYCIN]

1. 64
2. 2
3. 2

* * *

system: Enterococcus; experiment: Antibacterial activity against 10^4 to 10^5 CFU vancomycin-resistant Enterococcus after 18 hrs by CLSI 2-fold agar dilution method; type: functional
property_measured: MIC50

Worked cases, MIC50 given:
// returns reported MIC50 for input Cc1onc(-c2ccccc2)c1C(=O)N[C@@H]1C(=O)N2[C@@H]1SC(C)(C)[C@@H]2C(=O)O
> 64 µg/mL

// returns reported MIC50 for input CO/N=C1\CN(c2nc3c(cc2F)c(=O)c(C(=O)O)cn3C2CC2)CC1CN (stereo not drawn)
0.5 µg/mL

More entries:
// returns reported MIC50 for input CC[C@H]1OC(=O)[C@H](C)[C@@H](O[C@H]2C[C@@](C)(OC)[C@@H](O)[C@H](C)O2)[C@H](C)[C@@H](O[C@@H]2O[C@H](C)C[C@H](N(C)C)[C@H]2O)[C@](C)(O)C[C@@H](C)C(=O)[C@H](C)[C@@H](O)[C@]1(C)O
> 64 µg/mL

Reference for the values: ChEMBL document CHEMBL1671764
